Data provenance: paper PMC3618987

# measuredTarget: amyloid-β (1-42) peptide (Homo sapiens, UniProt P05067)
# Construct: Stock solution of amyloid-β (1-42) peptide (Anaspec; 1384 µM in 1% NH4OH)
# Sequence (P05067 672-713 limits assumed): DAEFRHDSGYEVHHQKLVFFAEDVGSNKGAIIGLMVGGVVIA
# methodSummary: Amyloid β aggregation assay (ThT fluorescence)
# measurementParameters: Aβ(1-42), read-out: Anti-Aβ aggregation IC50
// boundary case: IC50 equal to 60 µM maps to 0 (no); strictly smaller maps to 1 (yes)

stdin: Lab note: confirm whether the reported IC50 for this molecule is below 60 µM, equality not counting. molecule: COc1cc(/C=C/C(=O)NCc2cn(C[C@@H]3Cc4c([nH]c5ccccc45)CN3)nn2)ccc1O [Compound 6g]
stdout: 0 (no)

stdin: Please determine if O=C(/C=C/c1ccc(O)c(O)c1)NCc1cn(C[C@@H]2Cc3c([nH]c4ccccc34)CN2)nn1 [Compound 6h] is below 60 µM in terms of IC50.
stdout: 1 (yes)

stdin: Threshold test, IC50 < 60 µM: N[C@@H](Cc1c[nH]c2ccccc12)Cn1cc(-c2ccc(Cl)c(Cl)c2)nn1 [Compound 12c]
stdout: 0 (no)

stdin: Determine whether this molecule shows IC50 lower than 60 µM (ties excluded): N[C@@H](Cc1c[nH]c2ccccc12)Cn1cc(CNC(=O)/C=C/c2ccc(O)c(O)c2)nn1 [Compound 12h]
stdout: 1 (yes)

stdin: Please let me know if N[C@@H](Cc1c[nH]c2ccccc12)Cn1cc(CNC(=O)c2ccccc2C(=O)c2ccc(O)cc2)nn1 [Compound 12d] shows IC50 below 60 µM.
stdout: 1 (yes)

stdin: Please check: IC50 for COc1cc(/C=C/C(=O)NCc2cn(C[C@@H](N)Cc3c[nH]c4ccccc34)nn2)ccc1O [Compound 12g] , strictly under 60 µM or not?
stdout: 0 (no)

---

# methodSummary: Fe (II) chelation capacity assay (ferrozine)
Kindly state Fe chelation % Capacity (at 100 µM) (±SEM) for each of the entries shown.

stdin: Please report the recorded Fe chelation % Capacity (at 100 µM) (±SEM) for Clc1ccc(-c2cn(C[C@@H]3Cc4c([nH]c5ccccc45)CN3)nn2)cc1Cl [Compound 6c] .
stdout: 15.88 (±0.21) %

stdin: // returns reported Fe chelation % Capacity (at 100 µM) (±SEM) for input CC(C)(C)c1ccc(-c2cn(C[C@@H]3Cc4c([nH]c5ccccc45)CN3)nn2)cc1 [Compound 6a]
stdout: 9.67 (±0.32) %

stdin: Need Fe chelation % Capacity (at 100 µM) (±SEM) of O=C(CCc1ccc(O)cc1)NCc1cn(C[C@@H]2Cc3c([nH]c4ccccc34)CN2)nn1 [Compound 6e] , thanks.
stdout: 20.63 (±0.35) %

stdin: Which Fe chelation % Capacity (at 100 µM) (±SEM) value belongs to COc1cc(/C=C/C(=O)NCc2cn(C[C@@H]3Cc4c([nH]c5ccccc45)CN3)nn2)ccc1O [Compound 6g] ?
stdout: 8.88 (±0.25) %

stdin: Value lookup for Fe chelation % Capacity (at 100 µM) (±SEM); key = O=C(/C=C/c1ccc(O)c(O)c1)NCc1cn(C[C@@H]2Cc3c([nH]c4ccccc34)CN2)nn1 [Compound 6h]
stdout: 42.74 (±0.30) %

stdin: For O=C(O)CN(CCN(CC(=O)O)CC(=O)O)CC(=O)O [EDTA, reference compound] , what is its reported Fe chelation % Capacity (at 100 µM) (±SEM)?
stdout: 98.00 (±0.34) %

stdin: I'd like to know its Fe chelation % Capacity (at 100 µM) (±SEM). The compound in question is O=C(NCc1cn(C[C@@H]2Cc3c([nH]c4ccccc34)CN2)nn1)c1cc(O)cc(O)c1 [Compound 6f]
stdout: 5.80 (±0.04) %

stdin: Reported Fe chelation % Capacity (at 100 µM) (±SEM) for N[C@@H](Cc1c[nH]c2ccccc12)Cn1cc(CNC(=O)CCc2ccc(O)cc2)nn1 [Compound 12e] : what is it?
stdout: 41.42 (±1.13) %
